Test system: CP250
Assay: qHTS profiling for inhibitors of Plasmodium falciparum proliferation (AID 504749); further: nearly all actives have a fitted effect of over 60% in size
Settings: P. falciparum in erythrocytes, SYBR Green DNA, 72 h; series mostly up to 28.7 µM
Inconclusive results are not listed. Calls of active or inactive are those of the source. The call rests on the fitted dose curve; in most records, active means well fitted inhibition curve with a large enough effect; inconclusive means small, poorly fitted or top-dose-only effect; inactive means flat fitted curve, though single readings scatter.
Permitted responses: active, inactive

Recorded test call requested for `N#CCC(=O)NN` inactive

Recorded test call requested for `CCCCCCCCOc1ccc(C(=O)c2ccccc2)c(O)c1` inactive

Recorded test call requested for `C[N+]1(C)CCC(=C(c2ccccc2)c2ccccc2)CC1` inactive

Recorded test call requested for `CN(Cc1ccc(C(C)(C)C)cc1)Cc1cccc2ccccc12` inactive

Recorded test call requested for `OCCOCCN1CCN(C2=Nc3ccccc3Sc3ccccc32)CC1` inactive

Recorded test call requested for `CC(=O)Oc1ccc(C)cc1` inactive

Recorded test call requested for `O=S(=O)(O)c1ccc(O)cc1` inactive

Recorded test call requested for CCCCCCCCNC(C)C(O)c1ccc(SC(C)C)cc1 (stereo not given) active

Recorded test call requested for CCCCC(CC)COC(=O)/C=C/c1ccc(OC)cc1 (stereo not given) inactive

Recorded test call requested for `COc1ccc(C(=O)c2ccccc2O)c(O)c1` inactive

Recorded test call requested for `CC(=O)Nc1ncc([N+](=O)[O-])s1` inactive

Recorded test call requested for `CCOc1ccccc1C(N)=O` inactive

Recorded test call requested for `CCC(CC)(CC(=O)Nc1cccc(/C=C/c2nc(C3CCC3)cs2)c1)C(=O)O` inactive

Recorded test call requested for `O=C(Nc1cccc(C2=NCCN2)c1)Nc1cccc(C2=NCCN2)c1` active

Recorded test call requested for `CC(C)=CCOc1ccc(/C=C/C(=O)c2ccc(OCC=C(C)C)cc2OCC(=O)O)cc1` inactive

Recorded test call requested for `CCc1oc2ccccc2c1C(=O)c1cc(Br)c(O)c(Br)c1` inactive

Recorded test call requested for `O=C(Nc1ccc([N+](=O)[O-])cc1)Nc1ccc([N+](=O)[O-])cc1` inactive

Recorded test call requested for `CCN(CC)CCNC(=O)COc1ccc(OC)cc1` inactive

Recorded test call requested for NC1CCN(c2nc3c(cc2F)c(=O)c(C(=O)O)cn3-c2ccc(F)cc2F)C1 (stereo not given) inactive

Recorded test call requested for `CCOc1cc(OCC)c(C(=O)CCC(=O)O)cc1OCC` inactive

Recorded test call requested for `Cc1ncc(CO)c(C=O)c1O` inactive

Recorded test call requested for `COc1ccc(CN(CCN(C)C)c2ncccn2)cc1` inactive

Recorded test call requested for `CC(C)Cc1ccc(CC(=O)O)cc1` inactive

Recorded test call requested for `CCOC(=O)Nc1ccc2c(c1)N(C(=O)CCN1CCOCC1)c1ccccc1S2` inactive

Recorded test call requested for `NS(=O)(=O)Cc1noc2ccccc12` inactive

Recorded test call requested for `NC(N)=NCc1cccc(I)c1` inactive

Recorded test call requested for `COc1cc(O)c(C(=O)c2ccccc2)cc1S(=O)(=O)O` inactive

Recorded test call requested for `Cl/C(=C\n1cncn1)c1ccc(Cl)cc1Cl` inactive

Recorded test call requested for `CN(C)CCC[C@@]1(c2ccc(F)cc2)OCc2cc(C#N)ccc21` inactive

Recorded test call requested for `c1ccc(CC2=NCCN2)cc1` inactive

Recorded test call requested for `NC(N)=NN=C(/C=C/c1ccc([N+](=O)[O-])o1)/C=C/c1ccc([N+](=O)[O-])o1` active

Recorded test call requested for `C#C[C@]1(O)CC[C@H]2[C@@H]3CCC4=CC(=O)CC[C@@H]4[C@H]3CC[C@@]21CC` inactive

Recorded test call requested for `CCCCCCCC/C=C\CCCCCCCCN` inactive

Recorded test call requested for `OC[C@H]1O[C@@H]2O[C@H]3[C@H](O)[C@@H](O)[C@@H](O[C@H]4[C@H](O)[C@@H](O)[C@@H](O[C@H]5[C@H](O)[C@@H](O)[C@@H](O[C@H]6[C@H](O)[C@@H](O)[C@@H](O[C@H]7[C@H](O)[C@@H](O)[C@@H](O[C@H]8[C@H](O)[C@@H](O)[C@@H](O[C@H]1[C@H](O)[C@H]2O)O[C@@H]8CO)O[C@@H]7CO)O[C@@H]6CO)O[C@@H]5CO)O[C@@H]4CO)O[C@@H]3CO` inactive

Recorded test call requested for `CC(=O)OC[C@H]1O[C@@H](n2ncc(=O)[nH]c2=O)[C@H](OC(C)=O)[C@@H]1OC(C)=O` inactive

Reference source: PubChem BioAssay (NCATS)
